Record form. Attribute: IC50, SBE-luciferase reporter in HEK293 cells. Fill in for each entry.
Target entity: T1, Activin B (UniProt P09529 293-407)
T1 sequence (looked up): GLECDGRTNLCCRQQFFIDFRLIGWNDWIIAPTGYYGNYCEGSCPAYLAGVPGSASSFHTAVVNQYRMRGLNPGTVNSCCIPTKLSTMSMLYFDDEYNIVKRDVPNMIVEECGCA
Assay comment: cell-based or functional assay
Numbers only, in µg/mL.

[[record]]
binder = "ActRIIB-B1B7 (SEQ ID NO: 116) chimera-Fc protein (Fc fusion, Tested as chimera-Fc protein; not shown: linker (if any) and Fc domain) GRGEAETRECLFFNANWELERTNQSGLERCEGEQDKRLHCYASWRNSSGTIELVKKGCWLDDFNCYDRQECVATEENPQVYFCCCEGNFCNEKFSYFPEAGGPEVTYEPPPTAPT"
value_unit = "µg/mL"
measured_result = 0.18

[[record]]
binder = "ActRIIB-B5 (SEQ ID NO: 114) chimera-Fc protein (Fc fusion, Tested as chimera-Fc protein; not shown: linker (if any) and Fc domain) GRGEAETRECIYYNANWELERTNQSGLERCEGEQDKRLHCYASWRNSSGTIELVKKGCWLDDFNCYDRQECVEKEENPQVYFCCCEGNFCNERFTHLPEAGGPEVTYEPPPTAPT"
value_unit = "µg/mL"
measured_result = 0.11


// input: 2 binders below; output: IC50, SBE-luciferase reporter in HEK293 cells for each
1. ActRIIB-A5 (SEQ ID NO: 123) chimera-Fc protein (Fc fusion, Tested as chimera-Fc protein; not shown: linker (if any) and Fc domain) GRGEAETRECIYYNANWELERTNQSGLERCEGEQDKRLHCYASWRNSSGTIELVKKGCWLDDINCYDRTDCVATEENPQVYFCCCEGNFCNERFTHLPEAGGPEVTYEPPPTAPT
2. ActRIIB-A1 (SEQ ID NO: 120) chimera-Fc protein (Fc fusion, not shown: a dimerising Fc or GST) GAILGRSETQECIYYNANWELERTNQSGLERCEGEQDKRLHCYASWRNSSGTIELVKKGCWLDDFNCYDRQECVATEENPQVYFCCCEGNFCNERFTHLPEAGGPEVTYEPPPTAPT

Solution:
0.072
0.072
